Where do the numbers come from? From patent US6737383B1.

Test system: rice
Experiment: Test B flood test rice
Assay type: in vivo, Oryza sativa
Details: Rate 500 g/ha, listed under Postemergence (flood test species); scale 0 to 10, 0 no effect, 10 complete control
Recorded measurements of Rice plant response rating, one per entry

Smiles Text: CCn1c(=O)on(C(=O)N(c2ccccc2)C(C)C)c1=O
Subject Of Test: rice
Result: 0

// moving on: another record for Rice plant response rating
Per the record, CCN(CC)C(=O)n1oc(=O)n(Cc2cccs2)c1=O has Rice plant response rating of 0

---

Test system: soybean
Assay: Test B pre/postemergence soybean
Type: in vivo, Glycine max
Settings: Postemergence, Rate 62 g/ha; scale 0 to 10, 0 is no effect, 10 is complete control
Property Name: Plant response rating, Soybean
Lab note: record the figure alone, no unit after it.

The reported Plant response rating, Soybean value, soybean, for C#CCn1c(=O)on(C(=O)N(c2ccccc2)C(C)C)c1=O [Compound 754] reads 0

The reported Plant response rating, Soybean value, soybean, for C#CC=CC(C)(C)n1c(=O)on(C(=O)N(c2ccccc2)C(C)C)c1=O [Compound 655] reads 2

The reported Plant response rating, Soybean value, soybean, for CC(C)N(C(=O)n1oc(=O)n(CSC#N)c1=O)c1ccc(F)cc1 [Compound 618] reads 0

The reported Plant response rating, Soybean value, soybean, for CC[C@H](C)n1c(=O)on(C(=O)N(c2ccc(Cl)cc2)C(C)C)c1=O [Compound 664] reads 3

The reported Plant response rating, Soybean value, soybean, for CC(C)N(C(=O)n1oc(=O)n(CCCCl)c1=O)c1ccc(Cl)cc1 [Compound 749] reads 3

The reported Plant response rating, Soybean value, soybean, for Cc1nc(C(C)n2c(=O)on(C(=O)N(c3ccc(F)cc3)C(C)C)c2=O)sc1C (stereo not shown) [Compound 757] reads 3

The reported Plant response rating, Soybean value, soybean, for CCC(C)n1c(=O)on(C(=O)N(c2ccccc2)C(C)C)c1=O (stereo not shown) [Compound 611] reads 5

The reported Plant response rating, Soybean value, soybean, for C#CC(C)n1c(=O)on(C(=O)N(c2ccc(Cl)cc2)C(C)C)c1=O (racemic) [Compound 658] reads 2

The reported Plant response rating, Soybean value, soybean, for CC(C)N(C(=O)n1oc(=O)n(CC2CCCCO2)c1=O)c1ccccc1 (stereo not shown) [Compound 659] reads 2

The reported Plant response rating, Soybean value, soybean, for CON=CC(C)n1c(=O)on(C(=O)N(c2ccccc2)C(C)C)c1=O (stereo not shown) [Compound 790] reads 2

---

System: wheat
Test: Test B pre/postemergence wheat
Assay type: in vivo, Triticum aestivum
Conditions: Preemergence, Rate 250 g/ha; scale 0 (no effect) to 10 (complete control)
Recorded measurements of Wheat plant response rating, one per entry
Lab note: record the figure alone, no unit after it.

The examples below pair each entry with its known result.
Compound: COC(CCl)n1c(=O)on(C(=O)N(c2ccc(Cl)cc2)C(C)C)c1=O (stereo not shown)
Property Name: Wheat plant response rating
Recorded Number: 0
//
Compound: CC(C)N(C(=O)n1oc(=O)n(C[C@H](C)Cl)c1=O)c1ccccc1
Property Name: Wheat plant response rating
Recorded Number: 0
//
Compound: CC(C)N(C(=O)n1oc(=O)n(CC2CCCCO2)c1=O)c1ccc(F)cc1F (stereo not shown)
Property Name: Wheat plant response rating
Recorded Number: 3
//
Compound: COC(=O)C(c1ccccc1)n1c(=O)on(C(=O)N(c2ccc(Cl)cc2)C(C)C)c1=O (stereo not shown)
Property Name: Wheat plant response rating
Recorded Number: 0
//
Compound: CC(C)N(C(=O)n1oc(=O)n(C[C@H](C)Cl)c1=O)c1ccc(Cl)cc1
Property Name: Wheat plant response rating
Recorded Number: 0

The reported Wheat plant response rating value, wheat, for COCC(OC)n1c(=O)on(C(=O)N(c2ccccc2)C(C)C)c1=O (stereo not shown) reads 8

The reported Wheat plant response rating value, wheat, for COC(=O)C(c1ccccc1)n1c(=O)on(C(=O)N(c2ccccc2)C(C)C)c1=O (stereo not shown) reads 0
